biological target: c-Met (cytoplasmic domain) (Homo sapiens, UniProt P08581); construct: 10 ng/mL c-Met (cytoplasmic domain, Invitrogen Corporation #PV3143); purchased Invitrogen Corporation PV3143; assay: c-Met Kinase Assay (same methods as for ALK, with modifications); assay type: biochemical; settings: c-Met kinase inhibition, 1 μM ATP; read-out: cMet Activity
Sequence (P08581 956-1390 limits assumed): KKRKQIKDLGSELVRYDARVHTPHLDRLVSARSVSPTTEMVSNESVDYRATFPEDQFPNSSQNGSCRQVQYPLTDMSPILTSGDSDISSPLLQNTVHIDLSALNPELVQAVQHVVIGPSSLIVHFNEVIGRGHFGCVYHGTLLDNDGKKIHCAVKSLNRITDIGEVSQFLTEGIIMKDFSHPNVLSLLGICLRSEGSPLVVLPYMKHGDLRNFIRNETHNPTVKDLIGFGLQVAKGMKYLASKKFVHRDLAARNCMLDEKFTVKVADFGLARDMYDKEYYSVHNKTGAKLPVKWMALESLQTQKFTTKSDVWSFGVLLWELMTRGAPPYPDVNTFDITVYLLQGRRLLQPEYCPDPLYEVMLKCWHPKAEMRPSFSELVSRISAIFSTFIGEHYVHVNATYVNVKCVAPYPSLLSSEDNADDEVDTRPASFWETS
pIC50: −log10 of the molar value.
Reported pIC50 values are given for each entry in this list.

CCNC(=O)c1cccc(F)c1Nc1nc(Nc2ccc3c(c2)N(CC)C(=O)CCC3(C)C)ncc1Cl :: > 7.00
COc1cc2c(cc1Nc1ncc(Cl)c(Nc3ccccc3S(=O)(=O)N(C)C)n1)CCN(CC(=O)N1CCOCC1)CC2 :: < 5.00
COc1cc(N2CCOCC2)ccc1Nc1nc(Nc2ccc3c(c2)N(C(C)C)CCCC3(C)C)ncc1Cl :: < 5.00
COCCN1CCc2ccc(Nc3ncc(Cl)c(Nc4c(F)cccc4OCC(=O)OC)n3)cc2CC1 :: 5.00 to 6.00

Could you tell me which pIC50 is on file for `CNC(=O)c1cc(C)cc(C)c1Nc1nc(Nc2ccc3c(c2)CN(C)C(=O)CC3)ncc1Cl` ?
< 5.00

Could you tell me which pIC50 is on file for `CN1Cc2cc(Nc3ncc(Cl)c(Nc4ccccc4-c4cc[nH]n4)n3)ccc2CCC1=O` ?
6.00 to 7.00

Could you tell me which pIC50 is on file for `CNC(=O)c1cccc(Cl)c1Nc1nc(Nc2ccc3c(c2)C(C)(C)NC(=O)CC3)ncc1Cl` ?
> 7.00

###

Target: baculovirus-expressed ALK (Homo sapiens, UniProt Q9UM73)
Construct: host or cells: baculovirus expression system
Sequence (Q9UM73 19-1620): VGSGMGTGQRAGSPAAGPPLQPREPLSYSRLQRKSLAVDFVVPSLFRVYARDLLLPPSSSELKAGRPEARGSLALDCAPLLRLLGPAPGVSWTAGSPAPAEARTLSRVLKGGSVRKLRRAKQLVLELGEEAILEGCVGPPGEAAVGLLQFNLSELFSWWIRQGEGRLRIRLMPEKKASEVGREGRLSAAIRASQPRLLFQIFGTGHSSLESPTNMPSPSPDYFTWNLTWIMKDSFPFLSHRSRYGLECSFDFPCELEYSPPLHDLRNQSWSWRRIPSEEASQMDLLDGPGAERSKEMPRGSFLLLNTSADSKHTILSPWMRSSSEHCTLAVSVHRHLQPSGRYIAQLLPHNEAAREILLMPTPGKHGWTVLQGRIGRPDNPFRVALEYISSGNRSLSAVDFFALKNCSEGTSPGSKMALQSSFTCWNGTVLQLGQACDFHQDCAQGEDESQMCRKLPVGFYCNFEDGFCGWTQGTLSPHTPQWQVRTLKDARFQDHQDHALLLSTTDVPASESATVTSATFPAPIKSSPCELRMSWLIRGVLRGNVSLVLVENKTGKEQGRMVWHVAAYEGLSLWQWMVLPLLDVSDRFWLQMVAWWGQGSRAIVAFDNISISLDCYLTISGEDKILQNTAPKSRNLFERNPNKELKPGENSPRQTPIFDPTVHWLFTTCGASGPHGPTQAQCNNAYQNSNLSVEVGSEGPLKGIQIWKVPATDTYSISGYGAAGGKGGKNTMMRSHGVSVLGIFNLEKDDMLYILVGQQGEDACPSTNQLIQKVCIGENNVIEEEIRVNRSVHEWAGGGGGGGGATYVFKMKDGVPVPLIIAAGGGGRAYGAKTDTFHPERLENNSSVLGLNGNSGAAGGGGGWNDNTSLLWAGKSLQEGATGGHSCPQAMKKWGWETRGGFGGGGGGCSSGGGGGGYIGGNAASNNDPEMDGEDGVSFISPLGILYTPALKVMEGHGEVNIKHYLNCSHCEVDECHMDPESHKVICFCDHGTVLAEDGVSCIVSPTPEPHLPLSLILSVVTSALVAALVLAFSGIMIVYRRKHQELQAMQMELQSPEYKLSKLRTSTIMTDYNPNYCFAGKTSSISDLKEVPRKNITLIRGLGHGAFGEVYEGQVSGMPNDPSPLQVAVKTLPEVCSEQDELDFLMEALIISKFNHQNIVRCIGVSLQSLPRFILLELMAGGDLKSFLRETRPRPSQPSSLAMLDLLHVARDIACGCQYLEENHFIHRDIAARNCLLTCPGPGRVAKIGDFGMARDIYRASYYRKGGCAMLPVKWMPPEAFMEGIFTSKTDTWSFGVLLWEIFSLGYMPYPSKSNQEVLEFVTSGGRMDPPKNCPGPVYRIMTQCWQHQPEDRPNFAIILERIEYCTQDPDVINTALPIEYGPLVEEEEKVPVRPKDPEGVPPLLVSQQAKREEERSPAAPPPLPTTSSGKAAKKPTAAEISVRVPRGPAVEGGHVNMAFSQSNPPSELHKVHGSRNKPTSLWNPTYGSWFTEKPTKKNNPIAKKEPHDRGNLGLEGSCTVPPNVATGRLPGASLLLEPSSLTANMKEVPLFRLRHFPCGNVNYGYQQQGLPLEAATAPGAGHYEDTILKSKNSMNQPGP
Test: ALK Kinase Assay (ELISA-type, time-resolved fluorescence)
Assay type: biochemical
Conditions: ALK kinase inhibition, 1 μM ATP; read-out: ALK Activity
Protocol: Briefly, each 96-well plate was coated with 100 μL/well of 10 μg/mL substrate (phospholipase C-γ) in Tris-buffered saline (TBS). […] The reaction was initiated by adding enzyme (30 ng/ml ALK) and was allowed to proceed at 37° C. for 15 minutes. Detection of the phosphorylated product was performed by adding 100 μl/well of Eu-N1 labeled PT66 antibody (Perkin Elmer # AD0041). Data analysis was performed using ActivityBase (IDBS, Guilford, UK). […]
pIC50: −log10 of the molar value.
Reported pIC50 values are given for each entry in this list.

Examples from the recorded data:
CNC(=O)c1cccc(C(F)(F)F)c1Nc1nc(Nc2ccc3c(c2)CCOC(=O)N3C)ncc1Cl [Example 1753] :: < 5.00
COc1cc2c(cc1Nc1ncc(Cl)c(N[C@H]3[C@@H](C(N)=O)[C@@H]4C=C[C@H]3C4)n1)CCN(CC(=O)N1CCOCC1)CC2 [Example 1527] :: > 7.00
COc1cc2c(cc1Nc1ncc(Cl)c(Nc3ccccc3S(=O)(=O)N3CCC(O)C3)n1)CCN(CCO)CC2 (stereo not drawn) [Example 1551] :: > 7.00
Cc1cnc(-c2cccc(F)c2Nc2nc(Nc3ccc4c(c3)CCOC(=O)N4C)ncc2Cl)o1 [Example 1789] :: 6.00 to 7.00
C#CCNC(=O)c1cccc(F)c1Nc1nc(Nc2ccc3c(c2)N(C(C)=O)CCCO3)ncc1Cl [Example 1713] :: 6.00 to 7.00
COCCN1C(=O)CCC(C)(C)c2ccc(Nc3ncc(Cl)c(Nc4ccc(N5CCOCC5)cc4OC)n3)cc21 [Example 1584] :: > 7.00

Could you tell me which pIC50 is on file for COc1cc(N2CCOCC2)ccc1Nc1nc(Nc2ccc3c(c2)N(CCN2CCCC2)CCCC3(C)C)ncc1Cl [Example 1610] ?
> 7.00

Could you tell me which pIC50 is on file for CNC(=O)c1cccc(F)c1Nc1nc(Nc2ccc3c(c2)OCCCN3C(=O)COC)ncc1Cl [Example 1726] ?
6.00 to 7.00
